For each record, write down the corresponding self-cleavage.
B1: Osa-1-4 twister ribozyme (parent)
chain: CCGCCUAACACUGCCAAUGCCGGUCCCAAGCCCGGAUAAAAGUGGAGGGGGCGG

# Variants of: B1
# TEST NAME: self-cleavage, relative activity (ratio to wild type); higher = more cleavage; co-transcriptional
Answers are plain numbers.

C21A C33U
0.07

Return reported self-cleavage values for all items listed beneath this line.
1. C20A C21G
2. U18A U43A
3. A16C C26U
4. A28G A40C
5. C20G G50U
6. A7G G50U

1: 0.12; 2: 0.83; 3: 0.76; 4: 0.05; 5: 0.09; 6: 0.16
